src = ChEMBL document CHEMBL1201862

system: RXF 393; experiment: NCI tumour cell line growth inhibition, 48 h
Calls of active or inactive are those of the source. Rule as the data show it: active = GI50 up to about 1.1 µM and inactive = higher.
Thanks in advance; please answer with one of these: 1.0 for active, 0.0 for inactive

For orientation, consider the following solved cases.
INSERT INTO assay_data (compound, study_target, group_label) VALUES
  ('O=c1[nH]cnc2c1ncn2[C@H]1CO[C@@H](CO)[C@@H]1O', 'RXF 393', 0.0),
  ('NC(Cc1cccnn1)C(=O)O (stereo unspecified)', 'RXF 393', 0.0);

### Prompt Please let me know the test result on file for COc1ccc([C@H]2CC(=O)C[C@H](c3ccc(OC)cc3OC)C23C(=O)c2ccccc2C3=O)c(OC)c1 .
### Response 0.0

### Prompt Please let me know the test result on file for Clc1ccc2c(Cl)nc(-c3ccccc3)nc2c1 .
### Response 0.0

###

system: HL-60; assay: NCI tumour cell line growth inhibition, 48 h
Activity calls are given as the source filed them. Cut-off read from the data, not from the text of the source: active = GI50 up to about 1.1 µM and inactive = higher.
Each item that follows carries a reported GI50.

Worked set:
INSERT INTO results (compound, study_target, measured) VALUES
  ('CCOc1cc(NC(C)=O)ccc1C(=O)NNS(=O)(=O)c1ccc(NC(C)=O)cc1', 'HL-60', '22.8 µM (inactive)'),
  ('Cc1ccc([S+]([O-])c2ccccc2[N+](=O)[O-])cc1 (stereo not given)', 'HL-60', '29.1 µM (inactive)'),
  ('NNC(=O)CCC(=O)Nc1ccc(Cl)cc1Cl', 'HL-60', '94.4 µM (inactive)'),
  ('CCCCn1c(-c2ccc([N+](=O)[O-])cc2)cs/c1=N/N=C1\C(=O)Nc2ccc(Br)cc21', 'HL-60', '16.9 µM (inactive)'),
  ('COC(=O)C(Cc1ccccc1)NP(=O)(O)OCC1OC(n2cc(F)c(=O)[nH]c2=O)CC1O (stereo not given)', 'HL-60', '10.5 µM (inactive)');

### Prompt Supply GI50 measured with HL-60 for S=C(Nc1cc(Cl)c(Cl)cc1Cl)SCc1ccccc1 .
### Response 18.8 µM (inactive)

### Prompt Supply GI50 measured with HL-60 for CSc1cc(N)ccc1/N=N/c1ccc(S(N)(=O)=O)cc1 .
### Response 25.1 µM (inactive)

### Prompt Supply GI50 measured with HL-60 for C/C(CC(=O)Nc1cccc([N+](=O)[O-])c1)=N\NC(=O)C[n+]1ccccc1 .
### Response > 100 µM (inactive)

### Prompt Supply GI50 measured with HL-60 for CN(C1=NS(=O)(=O)N=C(N(C)c2ccccc2)O1)c1ccccc1 .
### Response 13.6 µM (inactive)

### Prompt Supply GI50 measured with HL-60 for O=C(NI1OC(=O)c2ccccc21)c1ccc(Cl)cc1 .
### Response > 100 µM (inactive)

###

system: OVCAR-5; assay: NCI tumour cell line growth inhibition, 48 h
The source made the active and inactive calls. No stated cut-off is given here; in the data, active = GI50 up to about 1.1 µM and inactive = higher.
MEASURE: GI50

INSERT INTO results (smiles_structure, measure, measured) VALUES
  ('CCOC(=O)Cc1csc2[n+]1C(=O)/C(=C\c1cccc(Cl)c1Cl)S2', 'GI50', '32.6 µM (inactive)'),
  ('COc1ccc(-c2cc(-c3cc(F)c(Cl)cc3Cl)on2)cc1OC', 'GI50', '> 100 µM (inactive)'),
  ('O=c1ccc2cc(O)c(O)cc2o1', 'GI50', '> 100 µM (inactive)'),
  ('O=C(O)CCc1nc2cc3ccccc3cc2[nH]c1=O', 'GI50', '> 100 µM (inactive)');

### Prompt Please report GI50 for the following compound: CC1=C(C(=O)NCc2ccccc2)C(c2ccccc2[N+](=O)[O-])C(C(=O)NCc2ccccc2)=C(C)N1
### Response 22.1 µM (inactive)

### Prompt Please report GI50 for the following compound: CC1=C(C(=O)NNC(=O)C(N)=O)CC(C(=O)NNC(=O)C(N)=O)=C(C)N1
### Response > 100 µM (inactive)

### Prompt Please report GI50 for the following compound: C/C(=N\N(C)C)c1sc(-n2nc(-c3ccccc3)cc2-c2ccccc2)nc1C
### Response 21 µM (inactive)

### Prompt Please report GI50 for the following compound: COc1c(C)c(C/C=C(\C)CC/C=C(\C)CC/C=C(\C)CCC=C(C)C)c(OC)c(OC)c1OC
### Response > 100 µM (inactive)

### Prompt Please report GI50 for the following compound: NNC(=O)CCC(=O)Nc1ccc(Cl)cc1Cl
### Response > 100 µM (inactive)

### Prompt Please report GI50 for the following compound: CC[C@@H](/C=C\CCC1(C[C@H](O)CCC=C(C)C)OCCO1)O[Si](C(C)C)(C(C)C)C(C)C
### Response 22 µM (inactive)

###

Each item that follows carries a reported GI50.
tested on: IGROV-1; experiment: NCI tumour cell line growth inhibition, 48 h
Active and inactive are the calls of the source. Rule as the data show it: active = GI50 up to about 1.1 µM and inactive = higher.

Worked set:
INSERT INTO results (compound, measure, measured) VALUES
  ('CCCCC(C#N)(OP1(=O)OC(c2ccccc2)C(C)N1C)c1ccccc1 (configuration not stated)', 'GI50', '16.7 µM (inactive)'),
  ('CC[C@@]1(O)C(=O)OCc2c1cc1n(c2=O)Cc2c-1nc1ccccc1c2/C=N\NC(=O)C(N)CS (some centres not stated)', 'GI50', '6.7 µM (inactive)'),
  ('c1ccc(/C(=N\Nc2nc3ccccc3[nH]2)c2ccccn2)cc1', 'GI50', '0.262 µM (active)'),
  ('CC[C@H]1C=CCC[C@@]2(C[C@@H]3CC[C@@H]4[C@H](C(=O)OCCCCCCCCCCCCCCCC(=O)N(CCCNC(C)=O)C[C@H](CCNC(C)=O)OC(C)=O)[C@]5(CCC[C@@H](C)O5)NC(=[N+]34)N2)O1', 'GI50', '0.0583 µM (active)'),
  ('c1ccc2c(c1)C1=NCCN1c1ccccc1-2', 'GI50', '3.44 µM (inactive)');

### Prompt Please report GI50 for the following compound: Cc1cc(O)nc(NNC(C#N)c2cccc(O)c2)n1 (configuration not stated)
### Response > 100 µM (inactive)

### Prompt Please report GI50 for the following compound: O=C(OCc1ccccc1CN1CCOCC1)c1ccc(Br)cc1
### Response 47.8 µM (inactive)

### Prompt Please report GI50 for the following compound: COc1cccc(CCn2c(N)c(-c3ccccc3)c3ccc([N+](=O)[O-])cc3c2=O)c1
### Response 5.6 µM (inactive)

### Prompt Please report GI50 for the following compound: Nc1ccc2c(c1)S(=O)(=O)c1cc(O)ccc1O2
### Response > 100 µM (inactive)

### Prompt Please report GI50 for the following compound: COc1cc(C2C3=C(CCC3=O)Oc3cc4c(cc32)OCO4)cc(OC)c1OC (configuration not stated)
### Response 0.67 µM (active)

### Prompt Please report GI50 for the following compound: CC1CCC2c3c([nH]c4ccccc34)C3C(=O)N(c4ccccc4)C(=O)C3C2C1 (configuration not stated)
### Response 19.7 µM (inactive)

### Prompt Please report GI50 for the following compound: Oc1cccc(-c2ccc3c4c2O[C@H]2c5[nH]c6ccccc6c5C[C@@]5(O)[C@@H](C3)N(CC3CC3)CC[C@]425)c1
### Response 1.74 µM (inactive)

### Prompt Please report GI50 for the following compound: Clc1cc(Br)c2c3c(c(Br)cc(Cl)c13)C(Br)=C2Br
### Response 16.7 µM (inactive)

### Prompt Please report GI50 for the following compound: COc1cc2c(cc1OC)-c1[nH]c3ccc([N+](=O)[O-])cc3c1CC(=O)N2
### Response 2.39 µM (inactive)

### Prompt Please report GI50 for the following compound: Cc1nc2ccc(NCCN(C)C)c3c(=O)c4ccccc4n1c23
### Response 1.75 µM (inactive)

### Prompt Please report GI50 for the following compound: O=C(c1cccc(OCc2ccccc2)c1OCc1ccccc1)N1CCSC1=S
### Response 28.6 µM (inactive)

### Prompt Please report GI50 for the following compound: C/C=C/CC(C(=O)OCC)(N(C)C(=O)OC(C)(C)C)S(=O)(=O)c1ccc(C)cc1 (configuration not stated)
### Response 68.7 µM (inactive)

###

tested on: SW-620; experiment: NCI tumour cell line growth inhibition, 48 h
The source made the active and inactive calls. No stated cut-off is given here; in the data, active = GI50 up to about 1.1 µM and inactive = higher.
Each item that follows carries a reported GI50.

### Prompt Supply GI50 measured with SW-620 for O=C(OCc1ccccc1CN1CCOCC1)c1ccc(Br)cc1 .
### Response > 100 µM (inactive)

### Prompt Supply GI50 measured with SW-620 for c1ccc(C2C3=C(CCCC3)Nc3nc4cc5ccccc5cc4n32)cc1 (configuration not stated) .
### Response > 100 µM (inactive)

### Prompt Supply GI50 measured with SW-620 for C=C1C(=O)O[C@@H]2C[C@]3(C)[C@@H](C[C@H]12)[C@](C)(O)CC[C@@H]3O .
### Response 45.9 µM (inactive)
